Quick reference for MRC5 IL-1α among some binders
- assay.target: T1, human IL-1α (human, UniProt P01583 113-271)
- T1 sequence (looked up): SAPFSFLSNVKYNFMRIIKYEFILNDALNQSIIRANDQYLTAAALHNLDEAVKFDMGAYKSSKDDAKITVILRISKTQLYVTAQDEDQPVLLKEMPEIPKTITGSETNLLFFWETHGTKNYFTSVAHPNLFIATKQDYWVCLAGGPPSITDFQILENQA
- method: cell-based or functional assay
The reply should contain only the number, in nM.

The examples below pair each entry with its known result.
INSERT INTO results (binder, reported_metric, unit_string, observed_result) VALUES
  ('ABT2-108-538x/ABT1-122-750x hu IgG1/K wt (bispecific antibody, V domains shown) VH: EVQLLESGGGLVQPGGSLRLSCAASGFTFADEGMMWVRQAPGKGLEWVSRITYSGKNTYYADSVKGRFTISRDNSKNTLYLQMNSLRAEDTAVYYCAKYTGRILGHHLFDYWGQGTLVTVSS VL: DIQMTQSPSSLSASVGDRVAITCSASQHIWTEISWYQQKPGKAPKLLIYGSASRQKGVPSRFSGSGSGTDFTLTISSLQPEDFATYYCKQFAYFPNTFGQGTKVEIKR', 'MRC5 IL-1α', 'nM', 75),
  ('ABT2-108-538x/ABT1-95-A3 hu IgG1mut 234, 235/K (bispecific antibody, V domains shown) VH: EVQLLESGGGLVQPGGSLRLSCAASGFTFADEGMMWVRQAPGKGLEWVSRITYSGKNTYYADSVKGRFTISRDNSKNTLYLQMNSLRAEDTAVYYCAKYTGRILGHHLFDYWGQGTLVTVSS VL: DIQMTQSPSSLSASVGDRVTITCRASKPGVRNMRWYQQKPGKAPKLLIYSVSYLEPGVPSRFSGSGSGTDFTLTISSLQPEDFATYHCLQGYRWPPTFGQGTKVEIKR', 'MRC5 IL-1α', 'nM', 0.032);

Req: Using the record for ABT2-65-166/ABT1-95-A3 huIgG1/K wt (bispecific antibody, V domains shown, hu IgG1/K wt; also called 1-95-A3 / 2-65-166) VH: EVQLLESGGGLVQPGGSLRLSCAASGFTFEDYQMGWVRQAPGKGLEWVSSISAMGGRTYYADSVKGRFTISRDNSKNTLYLQMNSLRAEDTAVYYCAQNLVRLGRSRWMFDYWGQGTLVTVSS VL: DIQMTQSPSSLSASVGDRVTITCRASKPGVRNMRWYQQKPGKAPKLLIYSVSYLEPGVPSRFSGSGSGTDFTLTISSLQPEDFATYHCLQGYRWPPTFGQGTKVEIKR , report its MRC5 IL-1α.
Resp: 0.017
